Listed here: items and their measured pIC50.
target: cDNA-expressed human hepatic CYP3A4 (Homo sapiens (Human)); test: Measurement of CYP (IC50 of P450 CYP3A4), BFC substrate; type: in vitro ADME; settings: 20 minutes
pIC50: −log10 of the molar value.
Observation type: pIC50

>  <Molecule>
C=CCN1CC(=O)N2[C@@H](Cc3ccc(O)cc3)C(=O)N(Cc3cccc4c(C(=O)N(C)CC(=O)N5CCN(C)CC5)cn(C)c34)C[C@@H]2N1C(=O)NCc1ccccc1

>  <Measurement target>
cDNA-expressed human hepatic CYP3A4 (Homo sapiens (Human))

>  <Value>
5.30

$$$$
>  <Molecule>
C=CCN1CC(=O)N2[C@@H](Cc3ccc(O)cc3)C(=O)N(Cc3cccc4c(C(=O)NCCCOC)cn(C)c34)C[C@@H]2N1C(=O)NCc1ccccc1

>  <Measurement target>
cDNA-expressed human hepatic CYP3A4 (Homo sapiens (Human))

>  <Value>
5.42

$$$$
>  <Molecule>
C=CCN1CC(=O)N2[C@@H](Cc3ccc(O)cc3)C(=O)N(Cc3cccc4c(C(=O)N5CCN6CCN(C=O)CC6C5)cn(C)c34)C[C@@H]2N1C(=O)NCc1ccccc1 (stereo partly drawn)

>  <Measurement target>
cDNA-expressed human hepatic CYP3A4 (Homo sapiens (Human))

>  <Value>
4.92

$$$$

====

Experiment: Solubility in physiological saline
Format: physicochemical
Conditions: saline or isotonic, thermodynamic from solid, 10 mg in 0.25 ml
Procedure: 2) Evaluation of Solubility of Compound E-5 Compound E-5, Compound E-5•HCl, and Compound E-5•H2SO4 were respectively weighed to 10 mg, and 0.25 ml of physiological saline was added, and they were vortex mixed. The supernatant was filtered with a 0.22 μm filter and quantitatively analyzed by HPLC.

>  <Smiles text>
C=CCN1CC(=O)N2[C@@H](Cc3ccc(O)cc3)C(=O)N(Cc3cccc4c(C(=O)N5CCN(CC)CC5)cn(C)c34)C[C@@H]2N1C(=O)NCc1ccccc1

>  <solubility (µg/mL)>
68

$$$$

====

Biological target: cDNA-expressed human hepatic CYP3A4 (Homo sapiens (Human), UniProt P08684)
Sequence (P08684 whole entry): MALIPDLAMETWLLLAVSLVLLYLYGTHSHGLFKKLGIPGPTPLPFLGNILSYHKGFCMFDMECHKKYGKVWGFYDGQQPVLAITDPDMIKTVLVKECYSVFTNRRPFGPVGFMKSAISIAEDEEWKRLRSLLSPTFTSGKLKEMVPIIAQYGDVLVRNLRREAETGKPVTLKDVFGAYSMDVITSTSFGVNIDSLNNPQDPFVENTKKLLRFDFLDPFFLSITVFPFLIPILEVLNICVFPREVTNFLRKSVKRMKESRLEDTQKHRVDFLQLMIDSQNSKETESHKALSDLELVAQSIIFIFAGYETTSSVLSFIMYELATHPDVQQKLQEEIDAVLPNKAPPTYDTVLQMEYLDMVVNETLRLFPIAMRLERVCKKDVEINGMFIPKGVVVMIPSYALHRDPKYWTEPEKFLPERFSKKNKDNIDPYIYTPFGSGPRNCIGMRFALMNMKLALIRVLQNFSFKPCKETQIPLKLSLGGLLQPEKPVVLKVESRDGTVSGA
Experiment: Measurement of CYP (IC50 of P450 CYP3A4), BFC substrate
Format: in vitro ADME
Details: 20 minutes
Description: The compounds of the present invention had lower P450 CYP3A4 inhibitory activity (higher IC50). Lower CYP3A4 inhibitory activity means that the compounds of the present invention cause fewer side-effects from the pharmacological point of view. […] Then, a fluorescent signal was measured using a fluorometer. A BFC metabolite, 7-hydroxy-4-trifluoromethyl-coumarin, was measured using an excitation wavelength of 409 nm and an emission wavelength of 530 nm.
pIC50: −log10 of the molar value.
Observation type: pIC50

>  <Compound>
C=CCN1CC(=O)N2[C@@H](Cc3ccc(O)cc3)C(=O)N(Cc3cccc4c(-c5ccc(C(=O)Nc6cccc(O)c6)cc5)cn(C)c34)C[C@@H]2N1C(=O)NCc1ccccc1

>  <Measurement target>
cDNA-expressed human hepatic CYP3A4 (Homo sapiens (Human), UniProt P08684)

>  <Value>
5.09

$$$$
>  <Compound>
C=CCN1CC(=O)N2[C@@H](Cc3ccc(O)cc3)C(=O)N(Cc3cccc4c(-c5ccc(C(=O)N6CCN(C)CC6)nc5)cn(C)c34)C[C@@H]2N1C(=O)NCc1ccccc1

>  <Measurement target>
cDNA-expressed human hepatic CYP3A4 (Homo sapiens (Human), UniProt P08684)

>  <Value>
5.19

$$$$
>  <Compound>
C=CCN1CC(=O)N2[C@@H](Cc3ccc(O)cc3)C(=O)N(Cc3cccc4c(C(=O)NCCCO)cn(C)c34)C[C@@H]2N1C(=O)NCc1ccccc1

>  <Measurement target>
cDNA-expressed human hepatic CYP3A4 (Homo sapiens (Human), UniProt P08684)

>  <Value>
4.79

$$$$
>  <Compound>
C=CCN1CC(=O)N2C(Cc3ccc(O)cc3)C(=O)N(Cc3cccc4c(C(=O)Nc5ccc(NCCCN6CCCC6)nc5)cn(C)c34)CC2N1C(=O)NCc1ccccc1 (stereo not shown)

>  <Measurement target>
cDNA-expressed human hepatic CYP3A4 (Homo sapiens (Human), UniProt P08684)

>  <Value>
5.59

$$$$
